target: ScLsb4; assay: SPOT peptide array binding signal intensity (averaged, normalized) (arbitrary units (background-subtracted, floor 0; scale differs between SH3 domains)); higher = stronger binding of the SH3 domain to the peptide
Reported SPOT peptide array binding signal intensity values follow for various binders
MEASURED_ATTRIBUTE: SPOT peptide array binding signal intensity

binder=YRRKSIPFAPHQITA reading_qualifier== readout_number=6
binder=NQARKPFLLPATELS reading_qualifier=≤ readout_number=0
binder=MARRRLPDRPPNGIG reading_qualifier== readout_number=1540
binder=LKVTPGRRAPTISKI reading_qualifier=≤ readout_number=0
binder=STPQTMRQAPKRPDA reading_qualifier== readout_number=35
binder=IVNKPLPPLPVAGSS reading_qualifier=≤ readout_number=0
binder=GLRRARYKFPGQQKI reading_qualifier== readout_number=13
